target: cGMP-specific 3',5'-cyclic phosphodiesterase (Homo sapiens); test: Inhibition of human recombinant PDE5 after 30 mins by fluorescence polarization assay
Binary call on IC50 with cut-off 0.1 µM: strictly below means Criterion met, and equality or higher means Criterion not met.

structure=CC(C)(C)N1C(=O)[C@@H]2Cc3c([nH]c4ccccc34)[C@@H](c3ccc(Cl)cc3Cl)N2C1=O assigned_label="Criterion met"
structure=COC(=O)[C@@H]1Cc2c([nH]c3ccccc23)[C@H](c2ccc(Cl)cc2Cl)N1C(=O)CCl assigned_label="Criterion not met"
structure=CC(C)(C)N1CC(=O)N2[C@H](c3ccc(Cl)c(Cl)c3)c3[nH]c4ccccc4c3C[C@H]2C1=O assigned_label="Criterion not met"
structure=CCN1C(=O)[C@@H]2Cc3c([nH]c4ccccc34)[C@@H](c3ccc(Cl)c(Cl)c3)N2C1=O assigned_label="Criterion not met"
structure=COC(=O)[C@@H]1Cc2c([nH]c3ccccc23)[C@H](c2c(Cl)cccc2Cl)N1C(=O)CCl assigned_label="Criterion not met"
structure=CCN1CC(=O)N2[C@H](c3ccc(Cl)cc3Cl)c3[nH]c4ccccc4c3C[C@H]2C1=O assigned_label="Criterion met"
structure=CCN1CC(=O)N2[C@@H](c3ccc(Cl)c(Cl)c3)c3[nH]c4ccccc4c3C[C@H]2C1=O assigned_label="Criterion not met"
structure=CCN1C(=O)[C@H]2Cc3c([nH]c4ccccc34)[C@@H](c3ccc(Cl)c(Cl)c3)N2C1=O assigned_label="Criterion not met"

----------
system: MDA-MB-231; test: Growth inhibition of human MDA-MB-231 cells at 10 uM after 72 hrs by luminescence assay; format: functional; settings: MDA-MB-231, 72 h
Could you label it MET if measured inhibition at 10 µM is 50% or higher, and NOT MET otherwise?

structure=CCN1CC(=O)N2[C@H](c3c(Cl)cccc3Cl)c3[nH]c4ccccc4c3C[C@@H]2C1=O assigned_label="NOT MET"
structure=CCN1CC(=O)N2[C@@H](c3ccc(Cl)cc3Cl)c3[nH]c4ccccc4c3C[C@@H]2C1=O assigned_label=MET
structure=CC(C)(C)N1C(=O)[C@H]2Cc3c([nH]c4ccccc34)[C@H](c3ccc(Cl)cc3Cl)N2C1=O assigned_label=MET
structure=CCN1CC(=O)N2[C@@H](c3ccc(Cl)cc3Cl)c3[nH]c4ccccc4c3C[C@H]2C1=O assigned_label=MET
structure=CC(C)(C)N1CC(=O)N2[C@@H](c3ccc(Cl)c(Cl)c3)c3[nH]c4ccccc4c3C[C@@H]2C1=O assigned_label="NOT MET"
structure=COC(=O)[C@H]1Cc2c([nH]c3ccccc23)[C@H](c2ccc(Cl)c(Cl)c2)N1 assigned_label=MET
structure=CC(C)(C)N1CC(=O)N2[C@H](c3c(Cl)cccc3Cl)c3[nH]c4ccccc4c3C[C@@H]2C1=O assigned_label="NOT MET"
structure=CC(C)(C)N1C(=O)[C@@H]2Cc3c([nH]c4ccccc34)[C@@H](c3ccc(Cl)c(Cl)c3)N2C1=O assigned_label=MET
structure=CCN1C(=O)[C@H]2Cc3c([nH]c4ccccc34)[C@@H](c3c(Cl)cccc3Cl)N2C1=O assigned_label=MET
structure=CCN1CC(=O)N2[C@@H](c3ccc(Cl)c(Cl)c3)c3[nH]c4ccccc4c3C[C@H]2C1=O assigned_label="NOT MET"
structure=COC(=O)[C@H]1Cc2c([nH]c3ccccc23)[C@H](c2ccc(Cl)cc2Cl)N1 assigned_label=MET
structure=CC(C)(C)N1C(=O)[C@@H]2Cc3c([nH]c4ccccc34)[C@@H](c3ccc(Cl)cc3Cl)N2C1=O assigned_label=MET
structure=CCN1C(=O)[C@@H]2Cc3c([nH]c4ccccc34)[C@@H](c3ccc(Cl)c(Cl)c3)N2C1=O assigned_label="NOT MET"
structure=CCCCN1CC(=O)N2[C@@H](c3ccc(Cl)cc3Cl)c3[nH]c4ccccc4c3C[C@H]2C1=O assigned_label=MET
structure=CCCCN1CC(=O)N2[C@H](c3ccc(Cl)cc3Cl)c3[nH]c4ccccc4c3C[C@H]2C1=O assigned_label="NOT MET"

----------
target: cGMP-specific 3',5'-cyclic phosphodiesterase (Homo sapiens, UniProt O76074); test: Inhibition of human recombinant PDE5 at 10 uM after 30 mins by fluorescence polarization assay
Class assignment keyed on inhibition, ranges small value: < 40%; mid value: ≥ 40% and < 90%; large value: ≥ 90%

structure=CC(C)(C)N1C(=O)[C@@H]2Cc3c([nH]c4ccccc34)[C@@H](c3ccc(Cl)cc3Cl)N2C1=O assigned_label="large value"
structure=CC(C)(C)N1CC(=O)N2[C@H](c3ccc(Cl)c(Cl)c3)c3[nH]c4ccccc4c3C[C@H]2C1=O assigned_label="mid value"
structure=CCN1C(=O)[C@H]2Cc3c([nH]c4ccccc34)[C@@H](c3ccc(Cl)cc3Cl)N2C1=O assigned_label="large value"
structure=CC(C)(C)N1C(=O)[C@H]2Cc3c([nH]c4ccccc34)[C@@H](c3ccc(Cl)cc3Cl)N2C1=O assigned_label="mid value"
structure=CCN1CC(=O)N2[C@@H](c3ccc(Cl)c(Cl)c3)c3[nH]c4ccccc4c3C[C@H]2C1=O assigned_label="mid value"
structure=COC(=O)[C@H]1Cc2c([nH]c3ccccc23)[C@H](c2ccc(Cl)c(Cl)c2)N1C(=O)CCl assigned_label="small value"
structure=CC(C)(C)N1CC(=O)N2[C@@H](c3c(Cl)cccc3Cl)c3[nH]c4ccccc4c3C[C@H]2C1=O assigned_label="small value"
structure=CC(C)(C)N1CC(=O)N2[C@@H](c3ccc(Cl)cc3Cl)c3[nH]c4ccccc4c3C[C@H]2C1=O assigned_label="mid value"
structure=COC(=O)[C@H]1Cc2c([nH]c3ccccc23)[C@H](c2ccc(Cl)cc2Cl)N1C(=O)CCl assigned_label="small value"
structure=CN1CC(=O)N2[C@H](c3ccc(Cl)cc3Cl)c3[nH]c4ccccc4c3C[C@@H]2C1=O assigned_label="large value"
structure=COC(=O)[C@@H]1Cc2c([nH]c3ccccc23)[C@H](c2c(Cl)cccc2Cl)N1 assigned_label="small value"
structure=CCN1CC(=O)N2[C@@H](c3ccc(Cl)c(Cl)c3)c3[nH]c4ccccc4c3C[C@@H]2C1=O assigned_label="mid value"
structure=CCCCN1CC(=O)N2[C@H](c3ccc(Cl)cc3Cl)c3[nH]c4ccccc4c3C[C@@H]2C1=O assigned_label="large value"
structure=COC(=O)[C@@H]1Cc2c([nH]c3ccccc23)[C@@H](c2ccc(Cl)cc2Cl)N1 assigned_label="mid value"
structure=COC(=O)[C@@H]1Cc2c([nH]c3ccccc23)[C@H](c2ccc(Cl)cc2Cl)N1 assigned_label="mid value"
structure=CCN1C(=O)[C@@H]2Cc3c([nH]c4ccccc34)[C@H](c3c(Cl)cccc3Cl)N2C1=O assigned_label="small value"
structure=COC(=O)[C@H]1Cc2c([nH]c3ccccc23)[C@@H](c2ccc(Cl)cc2Cl)N1 assigned_label="mid value"
structure=COC(=O)[C@@H]1Cc2c([nH]c3ccccc23)[C@H](c2ccc(Cl)c(Cl)c2)N1 assigned_label="small value"
structure=CN1CC(=O)N2[C@@H](c3ccc(Cl)cc3Cl)c3[nH]c4ccccc4c3C[C@H]2C1=O assigned_label="mid value"
structure=CN1CC(=O)N2[C@H](c3ccc(Cl)cc3Cl)c3[nH]c4ccccc4c3C[C@H]2C1=O assigned_label="large value"
structure=CC(C)(C)N1CC(=O)N2[C@H](c3ccc(Cl)c(Cl)c3)c3[nH]c4ccccc4c3C[C@@H]2C1=O assigned_label="small value"
structure=CCN1C(=O)[C@H]2Cc3c([nH]c4ccccc34)[C@@H](c3c(Cl)cccc3Cl)N2C1=O assigned_label="small value"
structure=COC(=O)[C@@H]1Cc2c([nH]c3ccccc23)[C@@H](c2ccc(Cl)cc2Cl)N1C(=O)CCl assigned_label="small value"
structure=COC(=O)[C@@H]1Cc2c([nH]c3ccccc23)[C@H](c2ccc(Cl)cc2Cl)N1C(=O)CCl assigned_label="large value"
structure=CCN1CC(=O)N2[C@H](c3ccc(Cl)cc3Cl)c3[nH]c4ccccc4c3C[C@H]2C1=O assigned_label="large value"
structure=CC(C)(C)N1C(=O)[C@H]2Cc3c([nH]c4ccccc34)[C@@H](c3c(Cl)cccc3Cl)N2C1=O assigned_label="mid value"
structure=CC(C)(C)N1C(=O)[C@H]2Cc3c([nH]c4ccccc34)[C@H](c3ccc(Cl)cc3Cl)N2C1=O assigned_label="mid value"
structure=CC(C)(C)N1C(=O)[C@@H]2Cc3c([nH]c4ccccc34)[C@H](c3ccc(Cl)c(Cl)c3)N2C1=O assigned_label="mid value"

----------
system: MDA-MB-231; test: Growth inhibition of human MDA-MB-231 cells after 72 hrs by luminescence assay; assay type: functional, cell-based; details: MDA-MB-231, 72 h
PARAMETER: IC50

structure=CC(C)(C)N1C(=O)[C@H]2Cc3c([nH]c4ccccc34)[C@@H](c3ccc(Cl)c(Cl)c3)N2C1=O measurement="3.25 µM"
structure=CCN1C(=O)[C@@H]2Cc3c([nH]c4ccccc34)[C@@H](c3ccc(Cl)cc3Cl)N2C1=O measurement="5.37 µM"
structure=CN1CC(=O)N2[C@@H](c3ccc(Cl)cc3Cl)c3[nH]c4ccccc4c3C[C@H]2C1=O measurement="7.1 µM"
structure=COC(=O)[C@@H]1Cc2c([nH]c3ccccc23)[C@H](c2ccc(Cl)c(Cl)c2)N1 measurement="6.98 µM"
